# Tested on: K-562
# Method Description: NCI-60 one-dose SRB screen (Leukemia)
# Type: cell-based
# Condition: Homo sapiens, K562, single dose 10 µM, 48 h, read-out: Growth inhibition percent (GI %)
The reader will find reported inhibition at 10 µM values listed item by item below.
Result Type: inhibition at 10 µM (%)

[[record]]
smiles = "CCOC(=O)c1ccc(NC(=O)COC(=O)c2cn(-c3ccc(S(N)(=O)=O)cc3)nc2-c2ccc(S(C)(=O)=O)cc2)cc1"
value_unit = "%"
relation_operator = "="
readout_number = 9.58

[[record]]
smiles = "NC(=S)NNC(=O)c1cn(-c2ccc(S(N)(=O)=O)cc2)nc1-c1ccccc1"
value_unit = "%"
relation_operator = "<"
readout_number = 5

[[record]]
smiles = "NC(=S)NNC(=O)c1cn(-c2ccc(S(N)(=O)=O)cc2)nc1-c1ccc(Br)cc1"
value_unit = "%"
relation_operator = "<"
readout_number = 5

[[record]]
smiles = "Cc1ccc(-c2nn(-c3ccc(S(N)(=O)=O)cc3)cc2C(=O)OCC(=O)Nc2ccc(S(N)(=O)=O)cc2)cc1"
value_unit = "%"
relation_operator = "="
readout_number = 7.16

[[record]]
smiles = "Cc1ccc(-c2nn(-c3ccc(S(N)(=O)=O)cc3)cc2-c2n[nH]c(=S)[nH]2)cc1"
value_unit = "%"
relation_operator = "<"
readout_number = 5

[[record]]
smiles = "COc1ccc(-c2nn(-c3ccc(S(N)(=O)=O)cc3)cc2C(=O)NNC(N)=S)cc1"
value_unit = "%"
relation_operator = "<"
readout_number = 5

[[record]]
smiles = "CCOC(=O)c1ccc(NC(=O)COC(=O)c2cn(-c3ccc(S(N)(=O)=O)cc3)nc2-c2ccccc2)cc1"
value_unit = "%"
relation_operator = "="
readout_number = 78.7

[[record]]
smiles = "Cc1ccc(-c2nn(-c3ccc(S(N)(=O)=O)cc3)cc2-c2nnc(N)s2)cc1"
value_unit = "%"
relation_operator = "="
readout_number = 11.1


Origin of values: paper PMC12454493
